- system_under_test: CYP199A4 (Rhodopseudomonas palustris, UniProt Q2IU02)
- assay_protocol: In vitro NADH oxidation activity assay
- Assay type: biochemical, Rhodopseudomonas palustris HaA2
- test_context: WT CYP199A4, min^−1 abbreviates nmol.nmol‐CYP^−1.min^−1
measured_attribute: product formation rate (min⁻¹)

Here is how some compounds turned out for product formation rate.
- structure: "O=C(O)c1ccc(C2CC2)cc1"
  product formation rate [min⁻¹]: 170
- structure: "CCCCCCCc1ccc(C(=O)O)cc1"
  product formation rate [min⁻¹]: 147

a = CC(C)Cc1ccc(C(=O)O)cc1
b = CCCCc1ccc(C(=O)O)cc1
(Q) Between these two entries, a and b , state which has the higher product formation rate. // respond with label for picked entry
(A) a
(a: 146 min⁻¹, b: 67 min⁻¹)

====

- system_under_test: CYP199A4 (Rhodopseudomonas palustris, UniProt Q2IU02)
- Sequence (Q2IU02 1-410): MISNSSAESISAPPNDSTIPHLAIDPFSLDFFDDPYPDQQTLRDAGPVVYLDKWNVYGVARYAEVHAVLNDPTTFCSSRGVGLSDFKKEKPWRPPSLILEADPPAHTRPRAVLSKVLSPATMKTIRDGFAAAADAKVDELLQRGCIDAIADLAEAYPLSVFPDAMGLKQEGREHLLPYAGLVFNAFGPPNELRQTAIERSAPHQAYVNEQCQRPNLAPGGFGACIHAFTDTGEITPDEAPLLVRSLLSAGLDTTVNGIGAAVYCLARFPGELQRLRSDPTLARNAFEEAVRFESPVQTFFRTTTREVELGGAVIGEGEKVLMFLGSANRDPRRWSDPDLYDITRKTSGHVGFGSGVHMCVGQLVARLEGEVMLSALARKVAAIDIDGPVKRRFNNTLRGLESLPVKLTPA
- assay_protocol: In vitro NADH oxidation activity assay
- Format: biochemical, Rhodopseudomonas palustris HaA2
- test_context: WT CYP199A4
measured_attribute: Coupling (percentage of NADH utilized for the formation of products) (%)

- structure: "CCCCCCCc1ccc(C(=O)O)cc1"
  uom: "%"
  reported_measurement: 53
- structure: "O=C(O)c1ccc(C2CC2)cc1"
  uom: "%"
  reported_measurement: 45
- structure: "CCCc1ccc(C(=O)O)cc1"
  uom: "%"
  reported_measurement: 86
- structure: "CCCCc1ccc(C(=O)O)cc1"
  uom: "%"
  reported_measurement: 40
- structure: "CC(C)Cc1ccc(C(=O)O)cc1"
  uom: "%"
  reported_measurement: 41

====

- system_under_test: CYP199A4 (Rhodopseudomonas palustris)
- assay_protocol: Dissociation constant determination by substrate binding titration
- Design: species or system Rhodopseudomonas palustris HaA2
- test_context: WT CYP199A4, 50 mM Tris pH 7.4
measured_attribute: Kd (nM)

Here is how some molecules turned out for Kd.
- structure: "CCCCc1ccc(C(=O)O)cc1"
  Kd / nM: 390
- structure: "CC(C)Cc1ccc(C(=O)O)cc1"
  Kd / nM: 590
- structure: "CCCc1ccc(C(=O)O)cc1"
  Kd / nM: 540

I = O=C(O)c1ccc(C2CC2)cc1
II = CCCCCCCc1ccc(C(=O)O)cc1
(Q) Decide: I or II , by lowest recorded Kd. // respond with label for picked entry
(A) II

====

- system_under_test: CYP199A4 (Rhodopseudomonas palustris)
- assay_protocol: In vitro NADH oxidation activity assay
- Type: biochemical, Rhodopseudomonas palustris HaA2
- test_context: HaPuR:HaPux:CYP199A4 1:10:1, 0.5 μM CYP, 50 mM Tris pH 7.4
measured_attribute: PFR (product formation rate) (nmol.nmol‐CYP^−1.min^−1)

- compound: "CCCc1ccc(C(=O)O)cc1 [4‐n‐propylBA, 4‐n‐propylbenzoic acid]"
  system_under_test: "CYP199A4 (Rhodopseudomonas palustris)"
  measured_attribute: "PFR (product formation rate)"
  reported_measurement: 594
- compound: "O=C(O)c1ccc(C2CC2)cc1 [4‐cyclopropylBA, 4‐cyclopropylbenzoic acid]"
  system_under_test: "CYP199A4 (Rhodopseudomonas palustris)"
  measured_attribute: "PFR (product formation rate)"
  reported_measurement: 170
- compound: "CC(C)Cc1ccc(C(=O)O)cc1 [4‐isobutylBA, 4‐isobutylbenzoic acid]"
  system_under_test: "CYP199A4 (Rhodopseudomonas palustris)"
  measured_attribute: "PFR (product formation rate)"
  reported_measurement: 146

1 = CCCCc1ccc(C(=O)O)cc1 [4‐n‐butylBA, 4‐n‐butylbenzoic acid]
2 = CCCCCCCc1ccc(C(=O)O)cc1 [4‐n‐heptylBA, 4‐n‐heptylbenzoic acid]
(Q) Between these two entries, 1 and 2 , state which has the higher PFR (product formation rate). // respond with label for picked entry
(A) 2
